Biological target: T1, exemplary TAT frataxin fusion molecule (HIV-1, UniProt Q16595 1-210)
T1 construct: in the bridging assays biotinylated and sulfotagged forms were used; also called TAT-FXN fusion molecule; TAT FXN fusion molecule
T1 sequence: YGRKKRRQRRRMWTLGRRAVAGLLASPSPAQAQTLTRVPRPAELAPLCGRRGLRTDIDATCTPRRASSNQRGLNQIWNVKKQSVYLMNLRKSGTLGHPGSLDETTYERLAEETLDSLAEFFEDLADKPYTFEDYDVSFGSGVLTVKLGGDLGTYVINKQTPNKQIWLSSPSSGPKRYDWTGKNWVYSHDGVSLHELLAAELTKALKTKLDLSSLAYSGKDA
Assay: PK sandwich ELISA in human plasma, antibody as capture, HRP anti-frataxin mAb detection
Value type: Mean OD at plasma conc. 51.2 ng/mL (OD)

| Binder | Measured value |
| --- | --- |
| antibody 12-8 (antibody, V domains shown, Rabbit monoclonal) VH: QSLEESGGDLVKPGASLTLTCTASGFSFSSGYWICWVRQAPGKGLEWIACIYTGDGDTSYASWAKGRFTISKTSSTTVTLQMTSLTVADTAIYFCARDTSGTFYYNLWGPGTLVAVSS VL: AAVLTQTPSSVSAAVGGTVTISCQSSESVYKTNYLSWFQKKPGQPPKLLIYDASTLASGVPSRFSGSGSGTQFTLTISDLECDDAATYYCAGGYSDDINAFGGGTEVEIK | 2.67 |
| antibody 10-5 (antibody, V domains shown, Rabbit monoclonal) VH: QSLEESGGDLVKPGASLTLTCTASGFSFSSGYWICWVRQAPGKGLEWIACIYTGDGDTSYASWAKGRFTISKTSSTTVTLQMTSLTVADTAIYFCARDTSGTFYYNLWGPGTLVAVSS VL: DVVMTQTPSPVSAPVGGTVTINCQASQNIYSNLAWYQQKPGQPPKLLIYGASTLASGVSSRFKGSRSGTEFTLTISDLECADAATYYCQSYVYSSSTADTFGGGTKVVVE | 2.86 |
| antibody 12-3 (antibody, V domains shown, Rabbit monoclonal) VH: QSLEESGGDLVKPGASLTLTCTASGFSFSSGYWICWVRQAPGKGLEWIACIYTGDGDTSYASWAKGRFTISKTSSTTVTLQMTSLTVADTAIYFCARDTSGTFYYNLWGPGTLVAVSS VL: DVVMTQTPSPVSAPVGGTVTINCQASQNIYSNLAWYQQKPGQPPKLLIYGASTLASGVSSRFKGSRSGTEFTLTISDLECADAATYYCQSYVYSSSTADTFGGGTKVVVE | 2.78 |
| antibody 10-1 (antibody, V domains shown, Rabbit monoclonal) VH: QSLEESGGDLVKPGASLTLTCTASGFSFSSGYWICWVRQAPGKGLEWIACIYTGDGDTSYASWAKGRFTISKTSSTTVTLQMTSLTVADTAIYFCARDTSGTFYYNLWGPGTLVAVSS VL: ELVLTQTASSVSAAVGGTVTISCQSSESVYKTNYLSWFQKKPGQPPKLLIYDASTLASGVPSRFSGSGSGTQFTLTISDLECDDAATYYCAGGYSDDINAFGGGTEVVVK | 2.66 |
